Assay target: T1, recombinant rat MASP1 active protease (amino acids 302-704, C-terminal His Tag) (rat, UniProt Q8CHN8 302-704)
T1 sequence: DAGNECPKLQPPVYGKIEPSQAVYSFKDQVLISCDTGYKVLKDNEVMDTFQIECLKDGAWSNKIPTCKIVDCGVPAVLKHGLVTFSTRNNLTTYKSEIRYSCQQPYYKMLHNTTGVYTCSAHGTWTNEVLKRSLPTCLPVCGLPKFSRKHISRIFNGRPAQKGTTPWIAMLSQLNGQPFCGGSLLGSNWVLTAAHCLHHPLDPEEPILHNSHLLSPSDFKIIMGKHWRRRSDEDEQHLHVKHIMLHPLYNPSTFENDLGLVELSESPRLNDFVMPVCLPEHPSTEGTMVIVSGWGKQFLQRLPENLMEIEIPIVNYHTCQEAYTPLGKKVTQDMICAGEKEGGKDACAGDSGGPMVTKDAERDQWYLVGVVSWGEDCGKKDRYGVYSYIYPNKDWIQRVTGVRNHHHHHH
Assay comment: cell-based or functional assay
Bridge positions count the residues as written; N and C are the ends. Square brackets hold non-standard residues; d marks the D form. Ends that are not written are not given here. Oic = O=C(O)[C@@H]1C[C@@H]2CCCC[C@@H]2N1; tBuAla = CC(C)(C)C[C@H](N)C(=O)O; Pen = CC(C)(S)[C@H](N)C(=O)O; NMeC = CN[C@@H](CS)C(=O)O
Experimental endpoint: rat MASP1 IC50
The answer should read as a number with its unit following.

Worked cases, answers included:
Query string: Look up rat MASP1 IC50: FICSRS[tBuAla]PPI[NMeC]I-NH2 (disulfide 3-11; N-terminus assumed; SMILES CC[C@H](C)[C@H](NC(=O)[C@@H]1CSSC[C@H](NC(=O)[C@@H](NC(=O)[C@@H](N)Cc2ccccc2)[C@@H](C)CC)C(=O)N[C@@H](CO)C(=O)N[C@@H](CCCNC(=N)N)C(=O)N[C@@H](CO)C(=O)N[C@@H](CC(C)(C)C)C(=O)N2CCC[C@H]2C(=O)N2CCC[C@H]2C(=O)N[C@@H]([C@@H](C)CC)C(=O)N1C)C(N)=O) [Example 181: FIC+SRS-((tBu)A)-PPI-((N-Me)C)+I-NH2]
Result string: 130 nM

Query string: Please give the result for {2‑(3-Pyridyl)acetic acid}-ICSRS[tBuAla]PPI[Pen]IP-NH2 (disulfide 2-10) [Example 226: (2-(3-Pyridyl)acetic acid)-IC+SRS-((tBu)A)-PPI-(Pen)+IP-NH2] too.
Result string: 29 nM

Note: attention shifts to another entry.
Query string: # lookup: rat MASP1 IC50 of [(S)‑Piperidine‑3‑Carboxylic Acid]ICSRSLP[Oic]I[Pen]IPD-OH (disulfide 3-11) [Example 489: ((S)-Piperidine-3-Carboxylic Acid)-IC+SRSLP-(Oic)-I-(Pen)+IPD-OH]
Result string: 42 nM
